# tested-on: G-protein coupled receptor 151 (Homo sapiens) (UniProt Q8TDV0)
# Sequence (Q8TDV0 whole entry, looked up): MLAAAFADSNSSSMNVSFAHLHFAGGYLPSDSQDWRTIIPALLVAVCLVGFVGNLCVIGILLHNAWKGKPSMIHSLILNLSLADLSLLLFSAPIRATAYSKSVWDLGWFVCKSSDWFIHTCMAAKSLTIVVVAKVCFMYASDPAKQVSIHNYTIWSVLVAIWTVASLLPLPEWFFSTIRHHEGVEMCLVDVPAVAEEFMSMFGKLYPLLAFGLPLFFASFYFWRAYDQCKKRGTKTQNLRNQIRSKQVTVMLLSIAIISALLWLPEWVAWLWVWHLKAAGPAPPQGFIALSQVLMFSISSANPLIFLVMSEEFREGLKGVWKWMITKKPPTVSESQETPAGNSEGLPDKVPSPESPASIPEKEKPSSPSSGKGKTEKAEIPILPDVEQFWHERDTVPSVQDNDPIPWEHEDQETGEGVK
# measurement-protocol: GPR151 activator potency, dose response, cell-based (AID 1508610)
# details: cell-based GPR151 activation reporter
Active and inactive are the calls of the source. How the calls were made is not given here.
endpoint-label: EC50

chemical-smiles	tested-on	observed-value
COc1ccc(-c2nnc3sc(NC(=O)C(C)C)nn23)cc1OC	G-protein coupled receptor 151 (Homo sapiens) (UniProt Q8TDV0)	> 28 µM (inactive)
CCOC(=O)c1sc(NC(=O)C2CC2)nc1C	G-protein coupled receptor 151 (Homo sapiens) (UniProt Q8TDV0)	> 28.6 µM (inactive)
CN(C)/C=C1/C(=O)N(c2nc3ccccc3s2)N=C1C(F)(F)F	G-protein coupled receptor 151 (Homo sapiens) (UniProt Q8TDV0)	> 38.5 µM (inactive)
CCN(CC(=O)NC1CCCCCC1)S(=O)(=O)c1ccc(C)cc1	G-protein coupled receptor 151 (Homo sapiens) (UniProt Q8TDV0)	> 28 µM (inactive)
